# test_target: Recombinant human HSD17B13 enzyme (Homo sapiens)
# Sequence (Q7Z5P4 20-300): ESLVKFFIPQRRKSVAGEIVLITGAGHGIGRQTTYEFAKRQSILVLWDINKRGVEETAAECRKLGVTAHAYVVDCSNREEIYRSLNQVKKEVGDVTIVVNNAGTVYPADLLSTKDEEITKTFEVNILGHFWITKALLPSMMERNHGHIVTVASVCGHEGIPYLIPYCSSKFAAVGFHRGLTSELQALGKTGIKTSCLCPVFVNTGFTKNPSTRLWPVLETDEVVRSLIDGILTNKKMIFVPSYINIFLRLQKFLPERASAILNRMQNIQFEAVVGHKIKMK
# experiment_notes: HSD17b13 NAD(P)H-Glo biochemical assay
# test_parameters: 50 uM estradiol, 1 mM NAD+, NAD(P)H-Glo luminescence; read-out: HSD17β13 IC50
# Experimental: Example B-1: HSD17b13 NAD(P)H-Glo Biochemical Assay Recombinant human HSD17B13 enzyme. Substrate: estradiol (Sigma β-Estradiol E8875), 100 mM in DMSO. Cofactor: NAD+ Grade I free acid (Sigma 10127965001), 20 mM in H2O. […] Enzymatic activity detected by NAD(P)H-Glo™ Detection System (Promega G9062). […] HSD17b13 enzyme was diluted in 1× assay buffer to the desired enzyme concentration based on the specific activity of the enzyme lot. […] After incubating for 1 hour at RT, luminescence was measured.
property: IC50

# molecule, IC50
records = [
    ("CC1(C#N)CCN(c2ccc(-n3ncc4cc(F)c(O)c(F)c43)cc2)CC1 [Compound 23.21]", "< 100 nM"),
]

// each molecule listed below needs its IC50
1. Oc1cc2c(cnn2-c2ccc(-c3ccccc3Cl)cc2)cc1F [Compound 13.6]
2. CS(=O)(=O)N1CCN(c2ccc(-n3nnc4cc(F)c(O)c(F)c43)nn2)CC1 [Compound 26.25]
3. CS(=O)(=O)N1CCN(c2ccc(-n3ncc4cc(F)c(O)c(F)c43)cc2Cl)CC1 [Compound 19.1]

100 to 1000 nM
1000 to 30000 nM
< 100 nM
